Where do the numbers come from? From paper PMC6906348.

Assay: Plasma pharmacokinetics
Type: in vivo, human
Details: human, plasma, oral, 300 mg, geomean Cmax, 300 mg BID capsules; cycle 1 day 1
Observed property: Cmax (ng/mL)
Give a bare numeral; the unit ng/mL is implied.

Qu. Value lookup for Cmax; key = CNC(=O)c1ccc(-c2cnc3ncc(Cc4ccc5ncccc5c4)n3n2)cc1F
Ans. 2140
